Target Desc: T1, NPY5R
T1 sequence (Q15761 1-445, species assumed, looked up): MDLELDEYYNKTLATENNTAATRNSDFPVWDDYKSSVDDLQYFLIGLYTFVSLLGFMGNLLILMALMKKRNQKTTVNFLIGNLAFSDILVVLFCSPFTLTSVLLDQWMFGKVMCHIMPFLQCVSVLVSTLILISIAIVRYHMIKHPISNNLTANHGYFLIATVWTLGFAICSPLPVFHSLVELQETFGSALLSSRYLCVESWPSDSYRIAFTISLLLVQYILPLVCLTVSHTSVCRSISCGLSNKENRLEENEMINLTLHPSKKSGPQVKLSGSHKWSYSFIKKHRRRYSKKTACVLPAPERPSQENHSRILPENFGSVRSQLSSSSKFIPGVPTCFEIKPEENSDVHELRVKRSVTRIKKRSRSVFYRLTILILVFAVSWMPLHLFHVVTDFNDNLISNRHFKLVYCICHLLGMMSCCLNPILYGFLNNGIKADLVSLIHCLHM
Protocol Text: cell-based or functional assay
Starred links: 1 amine or outer side, 2 acyl side, 3 side chain; linkers in the order of their positions; H or OH if unused. Positions of bridges follow the written chain, without caps; N, C: chain ends. Non-standard residues stand in square brackets, D forms with d. Groups on a side chain read outwards from the residue. No end group written: not given here. *: point of attachment. dpeg = —[CO(CH2)O(CH2)2O(CH2)NH]— spacer, O=C(COCCOCN[*:1])[*:2]; C20 diacid = O=C(O)CCCCCCCCCCCCCCCCCCC(=O)*; C19 diacid = O=C(O)CCCCCCCCCCCCCCCCCC(=O)*; γGlu = O=C(O)[C@H](CCC(=O)[*:2])N[*:1]
The entries below come with measured NPY5R pEC50 values attached.
Observation Type: NPY5R pEC50

| Binder | Observation Type | Measured Result |
| --- | --- | --- |
| PKPEAPGKDASPEEWNRYYK([γGlu-dpeg-dpeg-γGlu-C20 diacid])DLRHYLNWLTRQRF-NH2 [Compound A16] | NPY5R pEC50 | 9.1 -Log(EC50, M) |
| PKPEAPGK([γGlu-γGlu-C20 diacid])DASPEEWKRYYDDLRHYLNWLTRQRF-NH2 (lactam 16-20) [Compound A44] | NPY5R pEC50 | 9.2 -Log(EC50, M) |
| PKPEAPGK([γGlu-γGlu-C19 diacid])DASPEEWDRYYKDLRHYLNWLTRQRF-NH2 [Compound A33] | NPY5R pEC50 | 8.9 -Log(EC50, M) |
| PKPEAPGK([γGlu-γGlu-C20 diacid])DKSPEEWNRYYKDLRHYLNWLTRQRF-NH2 [Compound A66] | NPY5R pEC50 | 8.3 -Log(EC50, M) |
| PKPEAPGK([γGlu-γGlu-C20 diacid])DASPEEWQRYYKDLRHYLNWLTRQRF-NH2 [Compound A23] | NPY5R pEC50 | 8.6 -Log(EC50, M) |
| PKPEAPGKDASPEEWNRYY[dK]([γGlu-dpeg-dpeg-γGlu-C20 diacid])DLRHYLNWLTRQRF-NH2 [Compound A65] | NPY5R pEC50 | 8.6 -Log(EC50, M) |
| PKPEAPGK([γGlu-γGlu-C20 diacid])DASPEEWNRYY[dK]DLRHYLNWLTRQRF-NH2 [Compound A21] | NPY5R pEC50 | 8.3 -Log(EC50, M) |
| PKPEAPGK([γGlu-γGlu-C20 diacid])DASPEEWNRYYADLRHYLNWLTRQRF-NH2 [Compound A13] | NPY5R pEC50 | 8.7 -Log(EC50, M) |
| PKPEAPGK([γGlu-γGlu-C20 diacid])DASPEEWKRYYEDLRHYLNWLTRQRF-NH2 (lactam 16-20) [Compound A43] | NPY5R pEC50 | 8.5 -Log(EC50, M) |
| PKPEAPGK([γGlu-γGlu-C20 diacid])DASPEEWDRYYKDLRHYLNWLTRQRF-NH2 [Compound A24] | NPY5R pEC50 | 8.7 -Log(EC50, M) |

// provenance: patent US20250084142A1
